- Tested on: CAKI-1
- PROCEDURE DETAILS: NCI tumour cell line growth inhibition, 48 h
Active and inactive are the calls of the source. Cut-off read from the data, not from the text of the source: active = GI50 up to about 1.1 µM and inactive = higher.
Choose one outcome from this list and give only that: 1.0 = active, 0.0 = inactive

CC1=C[C@@H]2Cc3nc4cc(Cl)ccc4c(N)c3[C@H](C1)C2 ... 0.0
O=C(OCC1CCCN2CCCCC12)c1cccnc1 (stereo not drawn) ... 0.0

IN: Please indicate how the test categorized Cn1c(=O)c2c(nc3n2CCCC(=O)N3CCCCl)n(C)c1=O .
OUT: 0.0

IN: // query: CC1(C)N=C(N)N=C(N)N1c1cccc(CSc2ccccc2)c1
OUT: 0.0

IN: Record: C#C/C=C\CCCC/C=C\C#CC#CCCCC#CC#C[C@H](COS(=O)(=O)O)OS(=O)(=O)O
OUT: 0.0

IN: Here is the next compound: CC(=O)OCC1OC(n2c(=O)n(-c3ccccc3)c(=O)c3cc(Br)cc(Br)c32)C(OC(C)=O)C(OC(C)=O)C1OC(C)=O (stereo not drawn)
OUT: 0.0

IN: Same again, this time with CN(C)CCNc1c2ccccc2c2c3c(cccc13)C(=O)N(CCN(C)C)C2=O
OUT: 1.0

IN: And then Clc1cc(Cl)c2c(Cl)cc(Cl)c3c2c1N=S=N3 , what is it?
OUT: 0.0

* * *

Each entry below lists one item and its recorded GI50 value.
- Test system: OVCAR-5
- PROCEDURE DETAILS: NCI tumour cell line growth inhibition, 48 h
Activity calls are given as the source filed them. Rule as the data show it: active = GI50 up to about 1.1 µM and inactive = higher.

Completed entries (count: 5):
COC(=O)c1nc2c3c(cccc3c1C(=O)OC)Nc1ccccc1-2 ... > 100 µM (inactive)
CC1NC(=O)CC(c2ccccc2)N(N=O)C1c1ccccc1 (stereo not given) ... > 100 µM (inactive)
COc1ccc(N2C(=O)/C(=C\c3ccccc3)SC2c2cc(OC)c(OC)c(OC)c2)cc1 (stereo not given) ... > 100 µM (inactive)
CCCCCCCCCCCC[C@@H](O)[C@H]1CC[C@H]([C@H](O)CCCC[C@H](O)CCCCC[C@@H](O)CC2=C[C@H](C)OC2=O)O1 ... 1.18 µM (inactive)
Clc1ccc2c(NCCCCN3OC3c3ccccc3)ccnc2c1 (stereo not given) ... 14.4 µM (inactive)

IN: Find GI50 (OVCAR-5) for the entry COC(=O)C1=C(C(=O)OC)C2CCC1CC2=O (stereo not given)
OUT: > 100 µM (inactive)

IN: Now consider Cc1ccc2c(c1)C(=O)C1(C2)Cc2cccc(C)c2C1=O (stereo not given) .
OUT: > 100 µM (inactive)

IN: Same lookup for CS(=O)(=O)N1CC(CCl)c2ccc(NCCN)cc21 (stereo not given) , please.
OUT: > 100 µM (inactive)

IN: Please answer likewise for COc1ccc(OC(C(=O)O)C(C)C)c2c1CCCC2=O (stereo not given)
OUT: > 100 µM (inactive)

IN: # iterate: COc1ccc(N(C)S(=O)(=O)c2ccccc2)cc1
OUT: > 100 µM (inactive)

* * *

- Test system: SK-MEL-5
- PROCEDURE DETAILS: NCI tumour cell line growth inhibition, 48 h
The source made the active and inactive calls. Cut-off read from the data, not from the text of the source: active = GI50 up to about 1.1 µM and inactive = higher.
Below, each entry is listed with its recorded GI50.

Answered cases to consult:
CN(C)c1cccc2c1C(=O)C=CC21c2ccc(N(C)C)c3c(N(C)C)ccc(c23)C(c2ccccc2)C1c1ccccc1 (centres undefined) ... 14.2 µM (inactive)
O=S(=O)(O)c1cc(/N=[N+](\[O-])c2cc(S(=O)(=O)O)c3ccccc3c2)cc2ccccc12 ... 17.9 µM (inactive)
COc1cc(C[C@@]2(C)[C@@H]3CCC[C@H](CO)[C@@]3(C)CC[C@@H]2C)c(Cl)c(OC)c1 ... 17 µM (inactive)

IN: Entry COC1(OC)CC(CO)(CNc2cc(Cl)nc(N)n2)C1 has what GI50?
OUT: > 100 µM (inactive)

IN: Proceed to Brc1cc2c(cc1Br)CN(c1ccccc1)C2
OUT: > 100 µM (inactive)

IN: Another compound: Cc1ccc(S(=O)(=O)N2CCSCCN(S(=O)(=O)c3ccc(C)cc3)CCN(S(=O)(=O)c3ccc(C)cc3)CC2)cc1
OUT: > 100 µM (inactive)

IN: Consider next the compound CCOC(=O)/C(=C\c1ccnc2ccccc12)P(=O)(OCC)OCC in the same way.
OUT: 2.84 µM (inactive)

IN: Okay, and COC1CC(OC2C(C)OC(OC3C(C)OC(OC4C(O)CC(O[C@H]5CC[C@@]6(C)C(=CC[C@]7(O)[C@@H]6C[C@@H](OC(=O)/C=C/c6ccccc6)[C@@]6(C)[C@]7(O)CC[C@@]6(O)C(C)=O)C5)OC4C)CC3OC)CC2OC)OC(C)C1O (some centres undefined) ?
OUT: > 6.25 µM (inactive)

IN: # iterate: O=C1C(c2ccc([N+](=O)[O-])cc2)=C(Cl)C(=O)c2c(O)cccc21
OUT: 23.4 µM (inactive)

IN: Param item: COc1c(O)cc2c(c1O)C(=O)/C(=C/c1ccc(O)cc1)CO2
OUT: 22 µM (inactive)

* * *

- Test system: UO-31
- PROCEDURE DETAILS: NCI tumour cell line growth inhibition, 48 h
Activity calls are given as the source filed them. No stated cut-off is given here; in the data, active = GI50 up to about 1.1 µM and inactive = higher.
// allowed return values: true for active, false for inactive

Here's what some known entries look like.
Cc1ccc2c(c1)[n+]([O-])c(N)n[n+]2[O-] ... false
NCCCCC(NC(=O)C(N)Cc1ccc(O)cn1)C(=O)O (stereo not drawn) ... false
O=C1OC(=O)C2CCCC3CCCC1C32 (stereo not drawn) ... false
CC(=O)OCC1OC(n2cc([N+](=O)[O-])c(=O)[nH]c2=O)C(OC(C)=O)C(OC(C)=O)C1OC(C)=O (stereo not drawn) ... false

IN: Would you mind telling me which call this test gave O=C1c2ccccc2C(=O)N1c1ccc(Cc2ccc(N3C(=O)c4ccccc4C3=O)cc2)cc1 ?
OUT: false

* * *

- System: MDA-MB-231
- PROCEDURE DETAILS: NCI tumour cell line growth inhibition, 48 h
Active and inactive are the calls of the source. Cut-off read from the data, not from the text of the source: active = GI50 up to about 1.1 µM and inactive = higher.
GI50 reference

Examples with their reported GI50 follow.
CC(=O)NCCC1CN(C(=O)/C=C\C#C[Si](C)(C)C)c2ccccc21 (stereo not given) ... 17.3 µM (inactive)
CC1=C(C(=O)N(C(C)C)C(C)C)CC(C(=O)N(C(C)C)C(C)C)=C(C)N1 ... 54.1 µM (inactive)
O=C1C(NCCc2ccc(O)c([N+](=O)[O-])c2)=CC(=O)c2[nH]cnc21 ... 22.7 µM (inactive)
CCN(CC)CCC(=O)c1ccc(Oc2ccc(Cl)cc2)cc1 ... 14.5 µM (inactive)
c1csc(C(NC2=NCCO2)C2CC2)c1 (stereo not given) ... > 100 µM (inactive)

IN: What value of measured GI50 is listed for COC(=O)c1nc2c3c(cccc3c1C(=O)OC)Nc1ccccc1-2 ?
OUT: 23.8 µM (inactive)

IN: Now consider CC1(C)CCC2(C(=O)OC3OC(CO)C(O)C(O)C3O)CCC3(CO)C(=CCC4C5(C)CC(O)C(O)C(C)(C(=O)OC6OC(CO)C(O)C(O)C6O)C5CCC43C)C2C1 (stereo not given) .
OUT: > 100 µM (inactive)

IN: And for N#C/C(N)=C(\C#N)NC(=O)C(=O)N/C(C#N)=C(\N)C#N ?
OUT: > 100 µM (inactive)

IN: Same question, O=C(Nc1nc(C23CC4CC(CC(C4)C2)C3)cs1)c1cc2ccccc2oc1=O this time
OUT: > 100 µM (inactive)

IN: Now this one: C=CCN1C(=O)CC(=O)N(NC2=NNC3(C(=O)N2)c2ccccc2-c2ccccc23)C1=S
OUT: > 100 µM (inactive)

* * *

- Tested on: U-251
- PROCEDURE DETAILS: NCI tumour cell line growth inhibition, 48 h
The source made the active and inactive calls. No stated cut-off is given here; in the data, active = GI50 up to about 1.1 µM and inactive = higher.
GI50 for assorted compounds

c1ccc(CSc2nc3ccccc3nc2-c2cccs2)cc1 ... > 100 µM (inactive)
CCOC(=O)Cn1c2ccccc2c(=O)c2cc(C)c(C)c(C#N)c21 ... > 100 µM (inactive)
C[C@H]1CC[P+](C)(c2ccccc2)C1 (stereo partly specified) ... > 100 µM (inactive)
O=C(CSc1nc2ccc(I)cc2c(=O)n1Cc1ccccc1)NNC(=S)Nc1ccccc1 ... 6.24 µM (inactive)
CCCCCCCCC/C=C1/CC(CO)(COC(=O)CC(C(C)C)C(C)C)OC1=O (stereo unspecified) ... 11.9 µM (inactive)
c1ccc(C2OC3(CCC[C@H]4C[C@H]43)O[C@H]2c2ccccc2)cc1 (stereo partly specified) ... 41.1 µM (inactive)

IN: Given the compound C/C(CC(=O)Nc1ccc(NC(=O)/C(C)=N/NS(=O)(=O)c2ccc(C)cc2)cc1)=N\NS(=O)(=O)c1ccc(C)cc1 , what is its reported GI50?
OUT: > 100 µM (inactive)

IN: How about this compound: CC(C)CC(=O)CC(C)[C@]1(CCCOCc2ccccc2)C(=O)N2CCC3(C[C@@]24CCC[C@H]41)OCCO3 (stereo partly specified)
OUT: > 10 µM (inactive)

IN: Now consider C[N+](C)(C)C.FC(F)(F)C1(C(F)(F)F)O[SiH-]2(OC(C(F)(F)F)(C(F)(F)F)c3ccccc32)c2ccccc21 .
OUT: 5.4 µM (inactive)

IN: What do you get for Clc1ccc(-c2nnc3c4nnc(-c5ccc(Cl)cc5Cl)n4c4ccccc4n23)c(Cl)c1 ?
OUT: > 100 µM (inactive)

IN: Do the same for CCCCCCCCCCCCCCCCCCNc1ccn(C2OC(COP(=O)(O)OCCCCCCCCCCCCCCCC)C(O)C2O)c(=O)n1 (stereo unspecified) please
OUT: > 100 µM (inactive)

IN: Queued: C=CCN1C(=O)CC(=O)N(NC2=NNC3(C(=O)N2)c2ccccc2-c2ccccc23)C1=S
OUT: 38 µM (inactive)

Source listed as ChEMBL document CHEMBL1201862.
